# Test Target: T1, full-length human α7 nicotinic acetylcholine receptor (human, UniProt P36544 23-502)
# T1 construct: human α7 nicotinic acetylcholine receptor, UniProtKB P36544 ACHA7_HUMAN, full length; also called α7nAChR; full length α7nAChR; source: E. coli Rosetta 2(DE3) pLysS, purified (NiNTA, SEC)
# T1 sequence (P36544 23-502): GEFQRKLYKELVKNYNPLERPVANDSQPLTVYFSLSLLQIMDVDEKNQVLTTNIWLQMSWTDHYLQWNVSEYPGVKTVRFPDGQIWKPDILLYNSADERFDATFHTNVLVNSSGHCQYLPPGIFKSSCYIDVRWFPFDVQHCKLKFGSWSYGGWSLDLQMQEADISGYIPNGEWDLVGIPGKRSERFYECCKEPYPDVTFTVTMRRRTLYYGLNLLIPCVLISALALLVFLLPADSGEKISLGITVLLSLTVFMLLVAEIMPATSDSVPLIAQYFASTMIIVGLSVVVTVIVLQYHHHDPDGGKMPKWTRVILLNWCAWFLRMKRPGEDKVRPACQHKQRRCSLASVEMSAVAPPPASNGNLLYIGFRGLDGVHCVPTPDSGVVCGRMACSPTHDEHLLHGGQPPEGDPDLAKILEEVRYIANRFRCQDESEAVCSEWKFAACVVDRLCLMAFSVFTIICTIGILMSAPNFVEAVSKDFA
# Assay Overview: SPR; steady state; α7nAChR immobilised on an NTA sensor chip (1000-2000 RU), PICK1 PDZ domain flowed at 30 μl/min, 25 °C, Biacore 3000; receptor in 0.05% LDAO; apparent dissociation constants, Langmuir isotherm, n=3
# Condition: both partners purified
Readout Label: pKd
Answers are plain numbers, as −log10 of the molar value.

query: I have this binder here, PDZ domain of the intracellular scaffold protein PICK1 (domain or fragment, UniProt Q9NRD5 22-105, looked up, PICK1, PDZ domain; also called PICK1 PDZ domain) KVTLQKDAQNLIGISIGGGAQYCPCLYIVQVFDNTPAALDGTVAAGDEITGVNGRSIKGKTKVEVAKMIQEVKGEVTIHYNKLQ , and I need its recorded pKd.
result: 5.51
